target: human Cav2.2 (Homo sapiens, UniProt Q00975); test: Assessment of calcium channel activity using FLIPR (Ca2+ influx in IMR32 cells); details: IMR32 cells endogenously expressing human Cav2.2; 60 minute pre-incubation; 2 μM nifedipine; depolarized with 80 mM KCl, 5 mM CaCl2
Sequence (Q00975 whole entry): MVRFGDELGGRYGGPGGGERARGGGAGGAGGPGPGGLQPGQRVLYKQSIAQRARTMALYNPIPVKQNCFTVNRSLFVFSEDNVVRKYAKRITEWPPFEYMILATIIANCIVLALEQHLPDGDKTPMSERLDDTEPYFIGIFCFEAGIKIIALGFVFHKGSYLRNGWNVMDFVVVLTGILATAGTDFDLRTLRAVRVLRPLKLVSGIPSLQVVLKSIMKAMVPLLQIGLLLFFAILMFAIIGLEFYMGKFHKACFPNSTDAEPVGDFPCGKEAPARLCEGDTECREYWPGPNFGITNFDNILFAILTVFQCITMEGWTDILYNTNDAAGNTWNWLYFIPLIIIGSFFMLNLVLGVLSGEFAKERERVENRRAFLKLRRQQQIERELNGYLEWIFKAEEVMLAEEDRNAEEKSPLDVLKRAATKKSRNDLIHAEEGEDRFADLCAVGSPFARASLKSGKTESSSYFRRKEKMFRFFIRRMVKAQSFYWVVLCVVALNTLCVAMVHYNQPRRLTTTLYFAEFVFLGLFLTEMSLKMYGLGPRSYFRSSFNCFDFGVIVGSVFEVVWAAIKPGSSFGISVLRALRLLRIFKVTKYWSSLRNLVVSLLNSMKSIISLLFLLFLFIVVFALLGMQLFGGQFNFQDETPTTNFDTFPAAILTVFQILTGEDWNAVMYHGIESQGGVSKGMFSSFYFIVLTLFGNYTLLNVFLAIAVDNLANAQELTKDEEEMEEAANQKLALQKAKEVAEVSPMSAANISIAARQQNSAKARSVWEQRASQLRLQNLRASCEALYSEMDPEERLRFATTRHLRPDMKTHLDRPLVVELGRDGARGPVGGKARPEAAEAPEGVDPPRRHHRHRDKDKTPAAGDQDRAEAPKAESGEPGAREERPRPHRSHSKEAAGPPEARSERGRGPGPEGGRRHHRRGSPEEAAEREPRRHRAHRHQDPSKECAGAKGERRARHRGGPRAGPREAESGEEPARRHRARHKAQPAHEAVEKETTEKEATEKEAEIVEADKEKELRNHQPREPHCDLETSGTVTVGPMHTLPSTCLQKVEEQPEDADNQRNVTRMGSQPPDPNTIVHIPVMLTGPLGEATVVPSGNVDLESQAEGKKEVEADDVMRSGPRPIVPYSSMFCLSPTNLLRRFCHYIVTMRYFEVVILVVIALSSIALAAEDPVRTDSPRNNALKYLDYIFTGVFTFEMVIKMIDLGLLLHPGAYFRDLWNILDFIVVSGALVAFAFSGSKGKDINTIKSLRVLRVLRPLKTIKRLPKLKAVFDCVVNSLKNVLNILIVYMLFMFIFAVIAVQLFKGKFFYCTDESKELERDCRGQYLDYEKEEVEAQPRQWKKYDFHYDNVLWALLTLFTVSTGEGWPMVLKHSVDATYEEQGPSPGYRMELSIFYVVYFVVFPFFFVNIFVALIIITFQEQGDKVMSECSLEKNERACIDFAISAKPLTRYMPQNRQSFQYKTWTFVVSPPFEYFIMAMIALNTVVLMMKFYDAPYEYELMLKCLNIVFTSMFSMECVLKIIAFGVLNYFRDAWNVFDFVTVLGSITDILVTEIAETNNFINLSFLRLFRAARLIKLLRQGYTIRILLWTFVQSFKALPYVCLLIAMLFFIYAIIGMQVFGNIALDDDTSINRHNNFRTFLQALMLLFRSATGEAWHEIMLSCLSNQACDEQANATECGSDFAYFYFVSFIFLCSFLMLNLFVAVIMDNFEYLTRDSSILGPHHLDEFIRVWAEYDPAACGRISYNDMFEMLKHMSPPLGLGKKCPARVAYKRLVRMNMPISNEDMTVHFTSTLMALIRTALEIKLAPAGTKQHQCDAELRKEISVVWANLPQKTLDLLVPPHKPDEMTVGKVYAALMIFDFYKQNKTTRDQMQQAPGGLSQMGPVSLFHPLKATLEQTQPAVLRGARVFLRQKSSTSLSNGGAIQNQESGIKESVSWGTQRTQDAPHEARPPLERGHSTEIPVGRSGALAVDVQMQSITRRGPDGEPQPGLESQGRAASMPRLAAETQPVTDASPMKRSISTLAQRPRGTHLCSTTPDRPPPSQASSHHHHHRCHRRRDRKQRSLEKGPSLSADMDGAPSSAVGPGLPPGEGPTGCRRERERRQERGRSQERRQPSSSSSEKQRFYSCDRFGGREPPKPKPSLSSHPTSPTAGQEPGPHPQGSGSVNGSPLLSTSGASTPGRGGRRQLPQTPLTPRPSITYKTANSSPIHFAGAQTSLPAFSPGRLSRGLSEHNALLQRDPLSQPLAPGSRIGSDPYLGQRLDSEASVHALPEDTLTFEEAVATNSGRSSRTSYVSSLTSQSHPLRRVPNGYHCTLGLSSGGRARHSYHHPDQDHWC
Sequence (P54289 25-951 partner limits assumed): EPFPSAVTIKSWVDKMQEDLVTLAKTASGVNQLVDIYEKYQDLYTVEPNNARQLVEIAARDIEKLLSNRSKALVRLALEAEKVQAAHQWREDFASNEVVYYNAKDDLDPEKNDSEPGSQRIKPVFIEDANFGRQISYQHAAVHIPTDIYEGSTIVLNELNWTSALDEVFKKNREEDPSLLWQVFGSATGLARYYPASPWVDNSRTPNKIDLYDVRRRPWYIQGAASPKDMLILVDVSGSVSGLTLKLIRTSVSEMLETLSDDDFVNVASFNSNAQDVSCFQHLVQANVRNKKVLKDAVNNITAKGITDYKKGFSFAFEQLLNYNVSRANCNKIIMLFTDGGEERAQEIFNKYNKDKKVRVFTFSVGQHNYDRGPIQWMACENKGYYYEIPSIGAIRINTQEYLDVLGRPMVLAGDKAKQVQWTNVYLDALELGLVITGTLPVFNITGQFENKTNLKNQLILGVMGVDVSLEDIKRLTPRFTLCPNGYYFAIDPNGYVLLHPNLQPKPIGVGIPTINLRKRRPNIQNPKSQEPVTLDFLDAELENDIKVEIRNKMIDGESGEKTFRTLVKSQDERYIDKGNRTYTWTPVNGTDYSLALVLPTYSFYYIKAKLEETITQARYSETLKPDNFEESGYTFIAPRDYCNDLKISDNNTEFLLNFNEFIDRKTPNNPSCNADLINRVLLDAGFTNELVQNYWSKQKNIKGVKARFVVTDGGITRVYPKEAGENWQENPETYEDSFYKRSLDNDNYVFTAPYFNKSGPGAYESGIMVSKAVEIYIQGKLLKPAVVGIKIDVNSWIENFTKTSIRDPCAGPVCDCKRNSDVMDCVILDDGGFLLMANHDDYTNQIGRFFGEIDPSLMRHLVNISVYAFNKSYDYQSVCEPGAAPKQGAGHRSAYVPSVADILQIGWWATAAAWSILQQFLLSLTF
Sequence (P54289 952-1103 partner limits assumed): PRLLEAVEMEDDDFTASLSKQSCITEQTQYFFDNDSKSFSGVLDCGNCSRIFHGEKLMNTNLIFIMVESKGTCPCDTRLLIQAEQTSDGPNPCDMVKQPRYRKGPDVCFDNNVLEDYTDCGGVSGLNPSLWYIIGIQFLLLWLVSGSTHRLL
Sequence (P54284 whole entry partner): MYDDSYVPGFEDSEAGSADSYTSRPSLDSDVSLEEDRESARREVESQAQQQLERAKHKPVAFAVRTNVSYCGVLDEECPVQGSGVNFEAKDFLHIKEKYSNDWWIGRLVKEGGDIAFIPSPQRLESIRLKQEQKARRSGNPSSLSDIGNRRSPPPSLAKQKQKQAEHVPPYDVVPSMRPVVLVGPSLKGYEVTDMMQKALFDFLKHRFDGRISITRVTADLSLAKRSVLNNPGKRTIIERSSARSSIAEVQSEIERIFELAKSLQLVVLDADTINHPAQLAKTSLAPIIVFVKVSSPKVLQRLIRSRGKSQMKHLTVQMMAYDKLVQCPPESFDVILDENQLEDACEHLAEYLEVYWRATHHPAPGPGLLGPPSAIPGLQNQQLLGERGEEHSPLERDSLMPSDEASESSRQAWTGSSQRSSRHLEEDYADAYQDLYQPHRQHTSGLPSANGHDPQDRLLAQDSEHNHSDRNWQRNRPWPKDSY
Reported pIC50 by item:
The meaning of pIC50 here: minus log10 of the concentration in molar units.

Take a look at these entries with their results.
{"compound": "O=C(CN1CCCC(c2ccccc2)(c2ccccc2)C1=O)N1CCC(c2ccc(F)cc2)CC1", "pIC50": 5.43}
{"compound": "O=C1N(Cc2nc(-c3ccc(C(F)(F)F)cc3)no2)CCC1(c1ccc(F)cc1)c1ccc(F)cc1", "pIC50": 5.15}
{"compound": "O=C(CN1CCCC(c2ccccc2)(c2ccccc2)C1=O)N1CCC(n2nnc3cc(C(F)(F)F)ccc32)CC1", "pIC50": 5.69}
{"compound": "COc1ccc(C2(c3ccc(OC)cc3)CCCN(CCN(C)CCc3ccc(OC)cc3OC)C2=O)cc1", "pIC50": 5.83}
{"compound": "O=C(CN1CCC(c2ccccc2)(c2ccccc2)C1=O)NC1(c2ccccc2)CCC1", "pIC50": 6.05}
{"compound": "O=C(CN1CCC(c2ccc(F)cc2)(c2ccc(F)cc2)C1=O)N1CCC(c2ccc(F)cc2)(c2ccc(F)cc2)C1", "pIC50": 5.52}
{"compound": "O=C(CN1CCCC(c2ccccc2)(c2ccccc2)C1=O)N1CCCC1c1ccc(F)cc1 (stereo not drawn)", "pIC50": 5.46}
{"compound": "O=C1N(S(=O)(=O)c2ccc(C(F)(F)F)cc2Cl)CCC1(c1ccccc1)c1ccccc1", "pIC50": 4.74}

Req: Request the reported pIC50 associated with O=C1N(CCN2CCN(c3cccc(C(F)(F)F)c3)CC2)CCCC1(c1ccccc1)c1ccccc1
Resp: 5.81

Req: Same question for O=C(CN1CCCC(c2ccccc2)(c2ccccc2)C1=O)NC1CCN(Cc2cccc(C(F)(F)F)c2)CC1 please.
Resp: 6.00

Req: Same question for COc1ccc(C2(c3ccc(OC)cc3)CCCN(CCCN(C)CCc3cccc(OC)c3)C2=O)cc1 please.
Resp: 5.77

====

Reported pIC50 by item:
molecular target: human Cav2.2 (Homo sapiens, UniProt Q00975); assay: Assessment of calcium channel activity using FLIPR (Ca2+ influx in IMR32 cells); settings: IMR32 cells endogenously expressing human Cav2.2; 60 minute pre-incubation; 2 μM nifedipine; depolarized with 80 mM KCl, 5 mM CaCl2
The meaning of pIC50 here: minus log10 of the concentration in molar units.

Take a look at these entries with their results.
{"compound": "Cc1nc(-c2ccc(C(F)(F)F)cc2)sc1CN1CCC(c2ccccc2)(c2ccccc2)C1=O [Example 156]", "pIC50": 5.21}
{"compound": "O=C(CN1CCC(c2ccc(F)cc2)(c2ccc(F)cc2)C1=O)Nc1cccc(C(F)(F)F)n1 [Example 226]", "pIC50": 5.61}
{"compound": "O=C1N(Cc2nc(-c3ccc(C(F)(F)F)nc3)no2)CCC1(c1ccccc1)c1ccccc1 [Example 211]", "pIC50": 5.50}
{"compound": "O=C(CN1CCC(c2ccccc2)(c2ccccc2)C1=O)N1CCN(C(c2ccccc2)c2ccccc2)CC1 [Example 1]", "pIC50": 5.96}
{"compound": "O=C(CN1CCC(c2ccccc2)(c2ccccc2)C1=O)NC1CCN(C(c2ccccc2)c2ccccc2)CC1 [Example 48]", "pIC50": 6.40}
{"compound": "O=C(CN1CCCC(c2ccccc2)(c2ccccc2)C1=O)N1CCC(Oc2cccc(Cl)c2)CC1 [Example 159]", "pIC50": 5.43}

Req: Request the reported pIC50 associated with O=C(CN1CCC(c2ccc(F)cc2)C1=O)N1CCc2cc(Cl)ccc2C1 (stereo not shown) [Example 257]
Resp: 5.21
